Hey, just so you know, these numbers are from patent US20260176636A1.

# target_under_test: human factor Xa (Homo sapiens)
# Sequence (P00742 235-488 limits assumed): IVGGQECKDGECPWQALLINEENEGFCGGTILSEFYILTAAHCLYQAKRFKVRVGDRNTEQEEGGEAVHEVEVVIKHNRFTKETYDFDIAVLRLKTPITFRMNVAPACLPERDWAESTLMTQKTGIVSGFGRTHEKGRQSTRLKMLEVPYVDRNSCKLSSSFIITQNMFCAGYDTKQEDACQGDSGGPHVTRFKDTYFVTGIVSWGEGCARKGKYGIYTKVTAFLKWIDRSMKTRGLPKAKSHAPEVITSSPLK
# Sequence (P00742 41-179 limits assumed): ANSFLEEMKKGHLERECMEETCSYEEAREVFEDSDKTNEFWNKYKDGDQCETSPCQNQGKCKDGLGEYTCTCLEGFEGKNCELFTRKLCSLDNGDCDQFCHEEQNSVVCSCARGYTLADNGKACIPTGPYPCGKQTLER
result_type: IC50 (nM)

compound: COc1ccc(-n2nc(C(=O)O)c3c2C(=O)N(c2ccc(N4CCCCC4=O)cc2)CC3)cc1 [APX, apixaban-COOH, reference compound]
target_under_test: human factor Xa (Homo sapiens)
observed: 5.5
